# System: SW620 (colorectal adenocarcinoma)
# ASSAY NOTES: MTT cytotoxicity assay, SW620
# Assay type: cell-based, human
# CONDITION PARAMETERS: Homo sapiens, SW-620; 72 h, MTT; mean ± SD; read-out: IC50 SW620
# Protocol: The parent compound harmine, as well as the reference drug 5-fluorouracil, were used as positive controls. The experiments were carried out on five human cell lines purchased from American Type Culture Collection (ATCC): HepG2 (hepatocellular carcinoma; ATCC® HB-8065™), SW620 (colorectal adenocarcinoma; ATCC® CCL-227™), HCT116 (colorectal carcinoma; ATCC® CCL-247™), MCF-7 (breast adenocarcinoma; ATCC® HTB-22™), and Hek293T (embryonic kidney cells; ATCC® CRL-3216™). […]
REPORTED METRIC: pIC50
Kindly note that pIC50 refers to -log10 of the concentration in mol/L and answer with the value alone.

*Q* Given the molecule O=c1[nH]cc(F)c(=O)[nH]1 [Compound 5-FU, 5-fluorouracil, reference compound] , what is its reported pIC50?
*A* 5.03

----------
# Test system: HepG2 (hepatocellular carcinoma)
# ASSAY NOTES: MTT cytotoxicity assay, HepG2
# Type: cell-based, human
# CONDITION PARAMETERS: 72 h, MTT; mean ± SD; read-out: IC50 HepG2
pIC50: −log10 of the molar value.
REPORTED METRIC: pIC50

Field: example entries. Status: answers known.
COMPOUND | pIC50
Cc1nc(Cn2cc(-[c-]3cccc3)nn2)cc2c1[nH]c1ccccc12.[Fe+2].c1cc[cH-]c1 [Compound 21] | < 4.30
Cc1nc(CNC(=O)C[c-]2cccc2)cc2c1[nH]c1ccccc12.[Fe+2].c1cc[cH-]c1 [Compound 35] | < 4.30

*Q* Recorded pIC50 of Cc1nccc2c1[nH]c1cc(OCc3cn(C[c-]4cccc4)nn3)ccc12.[Fe+2].c1cc[cH-]c1 [Compound 28] , please.
*A* < 4.30
